Recorded self-cleavage kobs at 2500 uM GlcN6P for the following variants
B1: glmS ribozyme (parent)
chain: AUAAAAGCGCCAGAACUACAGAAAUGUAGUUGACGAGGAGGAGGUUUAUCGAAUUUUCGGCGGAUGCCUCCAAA

variants of: B1; experiment: self-cleavage kobs at 2500 uM GlcN6P; higher = faster cleavage; RNA array; conditions: with glucosamine-6-phosphate
Variants at the floor of the assay were thinned out.
quantity-measured: self-cleavage kobs at 2500 uM GlcN6P

mutation-string | quantity-measured | result
C16U G29U | self-cleavage kobs at 2500 uM GlcN6P | 0.00415 s⁻¹
A15C U31C | self-cleavage kobs at 2500 uM GlcN6P | 0.00104 s⁻¹
U30A U55G | self-cleavage kobs at 2500 uM GlcN6P | 0.00239 s⁻¹
G66U C70U | self-cleavage kobs at 2500 uM GlcN6P | 0.00124 s⁻¹
G7C G35A | self-cleavage kobs at 2500 uM GlcN6P | < 1e-05 s⁻¹
G29C U31C G37A C67A | self-cleavage kobs at 2500 uM GlcN6P | < 1e-05 s⁻¹
A15G C71A | self-cleavage kobs at 2500 uM GlcN6P | 0.006 s⁻¹
C11A A39U U45C G51C C61U | self-cleavage kobs at 2500 uM GlcN6P | < 1e-05 s⁻¹
C16U U30A U31G A53U G59U | self-cleavage kobs at 2500 uM GlcN6P | < 1e-05 s⁻¹
A12U A48U C58U | self-cleavage kobs at 2500 uM GlcN6P | < 1e-05 s⁻¹
C10U A36U G41A | self-cleavage kobs at 2500 uM GlcN6P | < 1e-05 s⁻¹
A48U C58U | self-cleavage kobs at 2500 uM GlcN6P | < 1e-05 s⁻¹
C16U A39G A42U U47A | self-cleavage kobs at 2500 uM GlcN6P | 0.000115 s⁻¹
A12U A15C C71A | self-cleavage kobs at 2500 uM GlcN6P | 0.0015 s⁻¹
U56C G60U | self-cleavage kobs at 2500 uM GlcN6P | < 1e-05 s⁻¹
U30G A42G U65G C67U | self-cleavage kobs at 2500 uM GlcN6P | 0.000104 s⁻¹
C8U G9U G13A G37A G41A | self-cleavage kobs at 2500 uM GlcN6P | < 1e-05 s⁻¹
U46G G51U C71U | self-cleavage kobs at 2500 uM GlcN6P | < 1e-05 s⁻¹
C11A C16U A23C A39G U54C C58U | self-cleavage kobs at 2500 uM GlcN6P | < 1e-05 s⁻¹
A42C C61U | self-cleavage kobs at 2500 uM GlcN6P | < 1e-05 s⁻¹
G7A A15G G29A A36G A52G | self-cleavage kobs at 2500 uM GlcN6P | < 1e-05 s⁻¹
C8G C71G | self-cleavage kobs at 2500 uM GlcN6P | < 1e-05 s⁻¹

Values from the supplement of paper PMC7125110
